System: LoVo
test: Inhibitory concentration against human colon tumor cell line LoVo
Type: functional, cell-based
experimental.readout: log10 IC50 (log10 of the value in nM)
Hey, these are logged values: log10 of IC50, nM being the unit before logging.

Below, each entry is followed by its recorded log10 IC50 result.
COc1ccc(-c2nc(O)c3c4c(sc3n2)CCCC4)c(F)c1: 2.66
CSc1ccc(-c2nc(O)c3c4c(sc3n2)CCCC4)cc1: 2.63

For the compound shown here, COc1cc(-c2nc(O)c3c4c(sc3n2)CCC4)cc(OC)c1OC , give the reported log10 IC50.
2.11

For the compound shown here, COc1ccc(-c2nc(O)c3c4c(sc3n2)CCCC4)cc1 , give the reported log10 IC50.
2.18

For the compound shown here, COc1cc(-c2nc(O)c3c4c(sc3n2)CCCCC4)cc(OC)c1OC , give the reported log10 IC50.
2.23

For the compound shown here, COc1cc(-c2nc(O)c3c4c(sc3n2)CCCC4)cc(OC)c1OC , give the reported log10 IC50.
2.15

For the compound shown here, COc1ccc(-c2nc(O)c3c4c(sc3n2)CCC4)cc1 , give the reported log10 IC50.
2.18

For the compound shown here, CCOc1ccc(-c2nc(O)c3c4c(sc3n2)CCCC4)cc1 , give the reported log10 IC50.
3.41

Cited source for all entries: ChEMBL document CHEMBL1142782
